Tested on: PC-3M
Assay: Cytotoxicity against human PC-3M cells assessed as reduction in cell viability by CCK-8 assay
Assay type: functional, cell-based
pIC50: −log10 of the molar value.
Recorded measurements of pIC50, one per entry
Observable: pIC50

>>> reported_value("C=C(C)[C@@H]1CC[C@]2(C(=O)OCCCCCn3cnc(C)c3)CC[C@]3(C)[C@H](C[C@H]4OC(=O)C[C@@H](O)[C@]5(C)[C@@H]4[C@@]3(C)CC[C@H]5C(=C)C)[C@@H]12")
4.83
>>> reported_value("C=C(C)[C@@H]1CC[C@]2(C(=O)OCCCCCn3cncn3)CC[C@]3(C)[C@H](C[C@@H](O)[C@@H]4[C@@]5(C)C(CC(=O)OC)OC(C)(C)C5CC[C@]43C)[C@@H]12 (stereo not given in full)")
4.49
>>> reported_value("C=C(C)[C@@H]1CC[C@]2(C(=O)OCCCCCCn3ccnc3C)CC[C@]3(C)[C@H](C[C@H]4OC(=O)C[C@@H](O)[C@]5(C)[C@@H]4[C@@]3(C)CC[C@H]5C(=C)C)[C@@H]12")
4.86
>>> reported_value("C=C(C)[C@@H]1CC[C@]2(C(=O)OCCCn3ccnc3CC)CC[C@]3(C)[C@H](C[C@@H](O)[C@@H]4[C@@]5(C)C(CC(=O)OC)OC(C)(C)C5CC[C@]43C)[C@@H]12 (stereo not given in full)")
4.60
>>> reported_value("C=C(C)[C@@H]1CC[C@]2(C(=O)OCCCCCCCCCCn3cc(CCN)c4ccccc43)CC[C@]3(C)[C@H](C[C@@H](O)[C@@H]4[C@@]5(C)C(CC(=O)OC)OC(C)(C)C5CC[C@]43C)[C@@H]12 (stereo not given in full)")
5.24

====

Tested on: PC-3M
Test: Cytotoxicity against human PC-3M cells assessed as reduction in cell viability by CCK-8 assay
Format: functional, cell-based
Measured IC50, listed per entry for reference.
Observable: IC50 (µM)

>>> reported_value("C=C(C)[C@@H]1CC[C@]2(C(=O)OCCCCCCCCCCn3cncn3)CC[C@]3(C)[C@H](C[C@@H](O)[C@@H]4[C@@]5(C)C(CC(=O)OC)OC(C)(C)C5CC[C@]43C)[C@@H]12 (stereo not given in full)")
23.5
>>> reported_value("C=C(C)[C@@H]1CC[C@]2(C(=O)OCCCCCCCCCCBr)CC[C@]3(C)[C@H](C[C@H]4OC(=O)C[C@@H](O)[C@]5(C)[C@@H]4[C@@]3(C)CC[C@H]5C(=C)C)[C@@H]12")
17.3
>>> reported_value("C=C(C)[C@@H]1CC[C@]2(C(=O)OCCCn3cc(CCN)c4ccccc43)CC[C@]3(C)[C@H](C[C@@H](O)[C@@H]4[C@@]5(C)C(CC(=O)OC)OC(C)(C)C5CC[C@]43C)[C@@H]12 (stereo not given in full)")
7.6
>>> reported_value("C=C(C)[C@@H]1CC[C@]2(C(=O)OCCCCCn3ccnc3C)CC[C@]3(C)[C@H](C[C@@H](O)[C@@H]4[C@@]5(C)C(CC(=O)OC)OC(C)(C)C5CC[C@]43C)[C@@H]12 (stereo not given in full)")
37.8
>>> reported_value("C=C(C)[C@@H]1CC[C@]2(C(=O)OCCCCn3ccnc3)CC[C@]3(C)[C@H](C[C@H]4OC(=O)C[C@@H](O)[C@]5(C)[C@@H]4[C@@]3(C)CC[C@H]5C(=C)C)[C@@H]12")
28.2
